tested on: SYO-1 complex spheroid growth, percent test/control; assay: Anticancer human tumor SYO-1 cell line growth inhibition [Asc]; conditions: second compound 0.316 µM; first compound 0.0949 µM; stronger effect = lower value;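 further: compound exposure lasted 7 days after spheroids grew 3 days; 100% = DMSO vehicle control viability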
Measured viability, T/C, listed per entry.
Write it as a number; the unit % goes unstated.

Given CCN1C(C(=O)NC23CCC(C(=O)O)(CC2)CC3)C(c2cccc(Cl)c2F)C2(C(=O)Nc3cc(Cl)ccc32)C12CCCCC2 (stereo not given) + Cc1c(S(C)(=O)=O)c(-c2cc(F)cc(N3CCN(c4ccc(NS(=O)(=O)c5ccc(NC(CCN6CCC(C(=O)OCCCP(=O)(O)O)CC6)CSc6ccccc6)c(S(=O)(=O)C(F)(F)F)c5)cc4)CC3)c2)c(-c2ccc(Cl)cc2)n1C(C)C , respond with its viability, T/C.
49.5

Report viability, T/C for NC(=O)C(=Cn1cnc(-c2cc(C(F)(F)F)cc(C(F)(F)F)c2)n1)c1cncnc1 + Cc1c(S(C)(=O)=O)c(-c2cc(F)cc(N3CCN(c4ccc(NS(=O)(=O)c5ccc(NC(CCN6CCC(C(=O)OCCCP(=O)(O)O)CC6)CSc6ccccc6)c(S(=O)(=O)C(F)(F)F)c5)cc4)CC3)c2)c(-c2ccc(Cl)cc2)n1C(C)C
89.1

Query viability, T/C for Cc1nc(N2CCC3(CC2)COC(C)C3N)c(CO)nc1Sc1ccnc(N)c1Cl (stereo not given) + Cc1c(S(C)(=O)=O)c(-c2cc(F)cc(N3CCN(c4ccc(NS(=O)(=O)c5ccc(NC(CCN6CCC(C(=O)OCCCP(=O)(O)O)CC6)CSc6ccccc6)c(S(=O)(=O)C(F)(F)F)c5)cc4)CC3)c2)c(-c2ccc(Cl)cc2)n1C(C)C
98.9

State its viability, T/C for this compound: Cc1nc(N2CCC3(CC2)COC(C)C3N)c(CO)nc1Sc1ccnc(N)c1Cl (stereo not given) + CNC(C)C(=O)NC1CN(S(=O)(=O)c2cccc(S(=O)(=O)N3CCC4CCC(C(=O)NC(c5ccccc5)c5ccccc5)N4C(=O)C(NC(=O)C(C)NC)C3)c2)CCC2CCC(C(=O)NC(c3ccccc3)c3ccccc3)N2C1=O
108

Read off the recorded viability, T/C for NC(=O)C(=Cn1cnc(-c2cc(C(F)(F)F)cc(C(F)(F)F)c2)n1)c1cncnc1 + CNC(C)C(=O)NC1CN(S(=O)(=O)c2cccc(S(=O)(=O)N3CCC4CCC(C(=O)NC(c5ccccc5)c5ccccc5)N4C(=O)C(NC(=O)C(C)NC)C3)c2)CCC2CCC(C(=O)NC(c3ccccc3)c3ccccc3)N2C1=O
105
